- system.tested: human SARM1(50-724) (Homo sapiens)
- Sequence (Q6SZW1 50-724): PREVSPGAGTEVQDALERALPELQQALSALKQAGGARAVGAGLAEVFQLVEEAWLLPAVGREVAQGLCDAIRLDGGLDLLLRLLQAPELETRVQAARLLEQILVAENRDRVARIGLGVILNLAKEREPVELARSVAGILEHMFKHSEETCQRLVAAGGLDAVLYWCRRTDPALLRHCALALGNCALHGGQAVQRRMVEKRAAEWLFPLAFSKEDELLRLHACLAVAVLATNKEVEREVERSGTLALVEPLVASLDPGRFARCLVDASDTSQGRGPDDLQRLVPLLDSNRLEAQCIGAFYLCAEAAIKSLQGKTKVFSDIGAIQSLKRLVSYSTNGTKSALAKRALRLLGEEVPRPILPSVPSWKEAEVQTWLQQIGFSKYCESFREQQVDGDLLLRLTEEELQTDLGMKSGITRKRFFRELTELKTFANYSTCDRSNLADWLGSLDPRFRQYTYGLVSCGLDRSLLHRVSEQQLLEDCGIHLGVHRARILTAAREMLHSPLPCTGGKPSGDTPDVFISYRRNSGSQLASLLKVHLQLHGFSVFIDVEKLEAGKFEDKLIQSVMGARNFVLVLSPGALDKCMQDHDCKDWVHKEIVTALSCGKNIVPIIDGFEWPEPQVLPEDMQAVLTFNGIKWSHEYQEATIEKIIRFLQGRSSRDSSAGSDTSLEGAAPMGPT
Reported IC50 values for the following compounds.

Solved cases below.
Cc1c(-c2ccncc2)n[nH]c1N(C(=O)CCc1ccc(Cl)cc1)C(=O)CCC1CCCC1 [Example 8] : < 1000 nM
Cc1c(-c2ccncc2)n[nH]c1NC(=O)CSc1ccc(Cl)cc1 [Example 63] : < 1000 nM
Cc1c(-c2ccncc2)n[nH]c1NC(=O)CCc1ccc(OC(F)(F)F)cc1 [Example 54] : < 1000 nM
Cc1c(-c2ccncc2)n[nH]c1NC(=O)C#Cc1ccc(Cl)cc1 [Example 72] : 1000 to 10000 nM
Cc1ccc(CCC(=O)Nc2[nH]nc(-c3ccncc3)c2C)cc1 [Example 24] : < 1000 nM
Cc1c(NC(=O)CSc2ccc(Cl)cc2)cnn1-c1ccncc1 [Example 81] : < 1000 nM

Query block: Data request, read-out IC50, for Cc1c(-c2ccncc2)n[nH]c1NC(=O)CCc1cc(Cl)c(Cl)c(Cl)c1 [Example 47]
Result block: < 1000 nM

Query block: Thanks! And Cc1c(-c2ccncc2)n[nH]c1NC(=O)CCc1ccc(CF)cc1 [Example 56] ?
Result block: < 1000 nM

Query block: For Cc1c(-c2ccncc2)n[nH]c1NC(=O)NCc1ccc(Cl)cc1 [Example 161] then?
Result block: < 1000 nM

Query block: Moving on to Cc1c(-c2ccncc2)n[nH]c1NC(=O)CCc1cc(F)c(F)c(F)c1 [Example 50]
Result block: < 1000 nM

Query block: Repeat with Cc1c(-c2ccncc2)n[nH]c1NC(=O)CCc1ccc(Br)cc1 [Example 35]
Result block: < 1000 nM

Query block: Next record, please: Cc1c(-c2ccncc2)n[nH]c1NC(=O)C1CC1c1ccc(Cl)cc1 (stereo not drawn) [Example 135]
Result block: 1000 to 10000 nM

Query block: Subsequent entry: O=C(CCc1ccc(Cl)cc1)Nc1cnn(-c2ccncc2)c1Cl [Example 90]
Result block: < 1000 nM

Query block: Input Cc1c(-c2ccncc2)n[nH]c1NC(=O)CCc1cc(F)c(Cl)cc1F [Example 40]
Result block: < 1000 nM

Query block: Record: Cc1c(-c2ccncc2)n[nH]c1N(C(=O)CCc1ccc(Cl)cc1)C(=O)CCc1ccc(Cl)cc1 [Example 3]
Result block: < 1000 nM

Query block: Likewise for O=C(CCc1cc(F)c(Cl)c(F)c1)Nc1cc(-c2ccncc2)n[nH]1 [Example 101] ?
Result block: < 1000 nM

Query block: Same question, Cc1c(N2C(=O)[C@H](Cc3ccc(Cl)cc3)NC2(C)C)cnn1-c1ccncc1 [Example 152] this time
Result block: 1000 to 10000 nM

Query block: Similarly, Cc1c(-c2ccncc2)n[nH]c1NC(=O)C(F)Cc1cc(F)c(Cl)c(F)c1 (racemic) [Example 71] ?
Result block: < 1000 nM

Data credit: patent US12404265B2
